Assay comment: solvent given as SMILES
Test context: in ClCCl
Measured metric: absorption maximum (nm)
Supply the numeric figure in nm, leaving out any unit text.

Consider the compound shown here: Fc1ccc(C2=C(c3ccc(F)cc3)c3cccc4c3c(cc3nc5ccccc5nc34)O2)cc1 What is its recorded absorption maximum?
490

Next compound up: Cc1ccc(N(c2ccc(C)cc2)c2ccc(-c3c4ccccc4c(-c4ccc(N(c5ccc(C)cc5)c5ccc(C)cc5)cc4)c4nsnc34)cc2)cc1
536

What about this compound? CC(C)(C)c1ccc2c(c1)c1cc(C(C)(C)C)ccc1n2-c1ccc(N(c2ccc(-c3ccc(-c4ccc(-c5ccc(-c6ccc(-c7ccc(N(c8ccc(-n9c%10ccc(C(C)(C)C)cc%10c%10cc(C(C)(C)C)ccc%109)cc8)c8ccc(-n9c%10ccc(C(C)(C)C)cc%10c%10cc(C(C)(C)C)ccc%109)cc8)cc7)s6)s5)s4)s3)cc2)c2ccc(-n3c4ccc(C(C)(C)C)cc4c4cc(C(C)(C)C)ccc43)cc2)cc1
450

Moving on to O=C(N/N=C/c1ccccc1O)c1ccccc1
330

Another: CCCCCCOc1cc(/C=C2\C(=O)c3ccccc3C2=C(C#N)C#N)c(OCCCCCC)cc1/C=C1\C(=O)c2ccccc2C1=C(C#N)C#N
548

CN(C)c1ccc(C2=Nc3scc(-c4ccc(C#N)cc4)[n+]3[B-](F)(F)O2)cc1 , same question.
415
